Experiment: inhibitors of Clostridioides difficile proliferation – 4-point retest, confirmation (AID 1224921);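 note: plate controls were DMSO wells for no effect and levofloxacin 16 µg/mL wells for full effect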
Settings: Clostridioides difficile clinical isolate growth, OD600, 24 h, hits give low values; at 30 µM unless noted
Out of some 1,400 compounds screened, about 350 (25%) were called active. Inconclusive results (about 2%) are left out. Only a sample is shown. Potency and affinity values are given separately.
The following molecules are shown together with reported max activity values.

INSERT INTO assay_data (smiles_input, measured_endpoint, result) VALUES
  ('CO[C@H]1CN(C)C(=O)c2ccc(NC(=O)C3CC3)cc2OC[C@H](C)N(Cc2cncnc2)C[C@H]1C', 'max activity', '-10.1% [at 1.95 µM] (inactive)'),
  ('C[C@@H]1CN([C@@H](C)CO)S(=O)(=O)c2ccc(C3=CCCCC3)cc2O[C@H]1CN(C)Cc1cccnc1', 'max activity', '15.4% (inactive)'),
  ('C[C@H](C(=O)N(C)C[C@H]1OCc2ccccc2-c2ccccc2C(=O)N([C@@H](C)CO)C[C@@H]1C)c1ccccc1', 'max activity', '-4.71% [at 0.5 µM] (inactive)');

Entry CO[C@@H]1CN(C)C(=O)c2ccc(NC(=O)c3nc4ccccc4s3)cc2OC[C@@H](C)N(Cc2cccnc2)C[C@H]1C has what max activity?
33.1% (inactive)

Which max activity value belongs to N#C[C@@H]1[C@H](c2ccccc2)[C@H](CO)N1S(=O)(=O)c1ccc(-c2ccccc2)cc1 ?
15.3% (inactive)

If you can, please state the reported max activity value of CC(C)CC#Cc1ccc2c(c1)O[C@H](CN(C)Cc1ccc3c(c1)OCO3)[C@H](C)CN([C@@H](C)CO)S2(=O)=O .
27.5% (inactive)

Given CO[C@H]1CN(C)C(=O)c2ccc(NC(=O)c3ccccc3F)cc2OC[C@@H](C)N(CC2CC2)C[C@@H]1C , state its recorded max activity.
-8.61% [at 0.5 µM] (inactive)

Endpoint output: max activity of CCS(=O)(=O)Nc1ccc2c(c1)C(=O)N(C)C[C@H](OC)[C@@H](C)CN(C(C)=O)[C@@H](C)CO2 . Value?
-9.47% [at 1.95 µM] (inactive)

###

Experiment: inhibitors of Clostridioides difficile proliferation – 4-point retest, confirmation (AID 1224921);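 note: plate controls were DMSO wells for no effect and levofloxacin 16 µg/mL wells for full effect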
Settings: Clostridioides difficile clinical isolate growth, OD600, 24 h, hits give low values; at 30 µM unless noted
In all, about 1,400 compounds went through this assay and about 350 (25%) were called active. Roughly 2% stayed inconclusive and do not appear here. These entries were drawn from the full list. Results with a measured potency or affinity are listed apart.
Consider the following compounds and their measured max activity readings.

INSERT INTO measurements (smiles_input, result) VALUES
  ('CO[C@@H]1CN(C)C(=O)c2cc(NC(=O)Nc3ccccc3F)ccc2OC[C@@H](C)N(CCC(F)(F)F)C[C@H]1C', '10.2% (inactive)'),
  ('O=C(C[C@@H]1C[C@@H]2c3cc(NC(=O)Nc4ccc(C(F)(F)F)cc4)ccc3O[C@@H]2[C@H](CO)O1)NCc1ccccn1', '-9.23% [at 1.95 µM] (inactive)'),
  ('O=C(C[C@@H]1C[C@H]2c3cc(NC(=O)Nc4ccc(C(F)(F)F)cc4)ccc3O[C@H]2[C@@H](CO)O1)NCc1ccc(Cl)cc1', '-9.79% [at 8 µM] (inactive)'),
  ('CCCNC(=O)Nc1ccc2c(c1)C(=O)N(C)C[C@@H](OC)[C@H](C)CN(Cc1ccccc1)[C@@H](C)CO2', '16.6% (inactive)');

Can you look up the measured max activity of C[C@@H]1CCCCO[C@H](CN(C)Cc2ccc(C(=O)O)cc2)[C@H](C)CN([C@H](C)CO)C(=O)c2cc(NC(=O)Nc3ccc4c(c3)OCO4)ccc2O1 for me?
-16.4% (inactive)

So what does the record say about max activity for CCCN1C[C@@H](C)[C@H](OC)CN(C)C(=O)c2ccc(NC(=O)CC)cc2OC[C@@H]1C ?
3.36% (inactive)

Query: max activity; subject: CO[C@@H]1CN(C)C(=O)c2ccc(NC(=O)c3nc4ccccc4s3)cc2OC[C@@H](C)N(Cc2ccncc2)C[C@H]1C
30.6% (inactive)
